- Tested on: CCRF-CEM
- assay.protocol: NCI tumour cell line growth inhibition, 48 h
The source made the active and inactive calls. Rule as the data show it: active = GI50 up to about 1.1 µM and inactive = higher.
# GI50 annotations

molecule	assayed.system	GI50
N#Cc1c2ccc([N+](=O)[O-])cc2c(=O)n2c1sc1ccccc12	CCRF-CEM	7.29 µM (inactive)
Nc1ccn(CCOC(=O)c2ccccc2)c(=O)n1	CCRF-CEM	> 100 µM (inactive)
Brc1ccc(-c2cc(-c3ccc4c(c3)OCO4)c(-c3cccs3)n2Cc2ccccc2)cc1	CCRF-CEM	> 100 µM (inactive)
CCOC(=O)c1ccc(/N=c2/[nH]c3ccccc3s/c2=N/c2ccc(C(=O)OCC)cc2)cc1	CCRF-CEM	> 100 µM (inactive)
CN1C(=O)C2C3C=C4c5ccccc5N(c5ccccc5)C4(C2C1=O)[C@H]1C(=O)N(C)C(=O)[C@@H]31 (stereo not given in full)	CCRF-CEM	> 100 µM (inactive)

Ask | Give a short answer stating reported GI50 for `CCc1ccccc1N1C(=O)C(=O)C(c2nc3ccccc3s2)C(=O)C1=O` .
Reply | 37.6 µM (inactive)

---

- Test system: SF-539
- assay.protocol: NCI tumour cell line growth inhibition, 48 h
Calls of active or inactive are those of the source. Rule as the data show it: active = GI50 up to about 1.1 µM and inactive = higher.
Can you answer with just one of these options? active, inactive

Study these solved cases before continuing.
compound	group.label
CN(CCC#N)c1ccc(/C=C2\SC(=S)NC2=O)cc1	inactive
COc1cc([C@@H]2c3cc4c(cc3[C@@H](/N=C/c3ccc(C(=O)O[C@@H](C(=O)O[C@H]5C[C@@]6(O)[C@@H](OC(=O)c7ccccc7)[C@@H]7[C@]8(OC(C)=O)CO[C@@H]8C[C@H](O)[C@@]7(C)C(=O)[C@H](OC(C)=O)C(=C5C)C6(C)C)[C@@H](NC(=O)c5ccccc5)c5ccccc5)cc3)[C@H]3COC(=O)[C@H]23)OCO4)cc(OC)c1O	active
Cc1cc(N(CCC#N)CCC#N)ccc1/C=C/C(=O)Nc1ccccc1Cl	inactive
CC1=N/C(=C\c2cccc3ccccc23)C(=O)O1	inactive
COc1ccc2nc3cc(Cl)ccc3c(NC(C)CCCN(CCCl)CCCl)c2c1 (centres undefined)	active
COc1ccc(C2OC[C@H]3O[C@@H](OCc4ccccc4)[C@H](O)[C@@H](O)[C@@H]3O2)cc1 (some centres undefined)	inactive

Ask | Status in this test for CSCCC(NC(=O)C(Cc1ccccc1)NC(=O)CNC(=O)CNC(=O)C(N)Cc1ccc(O)cc1)C(=O)O (centres undefined) ?
Reply | inactive

Ask | Status in this test for `Cn1nc(-c2ccccc2)c(C(=O)/C=C/c2ccc(Cl)cc2)c(N2CCOCC2)c1=O` ?
Reply | inactive

Ask | Status in this test for O=P(Nc1ccccc1)(Oc1ccccc1)N(CCCl)CCCl (centres undefined) ?
Reply | inactive

Ask | Status in this test for `CCOC(=O)c1ccc(Nc2nc3ccc(C(F)(F)F)cc3nc2-c2ccccc2)cc1` ?
Reply | inactive

---

- System: Malme-3M
- assay.protocol: NCI tumour cell line growth inhibition, 48 h
Calls of active or inactive are those of the source. Cut-off read from the data, not from the text of the source: active = GI50 up to about 1.1 µM and inactive = higher.
parameter.measured: GI50

molecule	parameter.measured	measured.value
COc1ccc(N2C(=O)[C@@H](N=[N+]=[N-])[C@@H]2[C@H]2COC(C)(C)O2)cc1	GI50	> 100 µM (inactive)
O=C(CCc1ccccc1)NCCc1ccc(O)c(O)c1	GI50	45.3 µM (inactive)
COc1ccc(CNC(=O)NCn2cc(-c3ccccc3)nn2)cc1	GI50	> 100 µM (inactive)
CC1CC(=O)Nc2ccccc2N1C(=O)CN1CCC(CCCCN(C)C)CC1 (centres undefined)	GI50	> 100 µM (inactive)

Ask | Give the observed GI50 of `C[C@H](c1ccccc1)N1C(=O)[C@@H](O)[C@H]1[C@H](CO)OCc1ccccc1` for Malme-3M.
Reply | > 100 µM (inactive)

Ask | Give the observed GI50 of `COC(=O)c1cc(NC(=O)c2cc(NC(=O)Cc3c[nH]c4ccccc34)cn2C)cn1C` for Malme-3M.
Reply | 21.1 µM (inactive)

Ask | Give the observed GI50 of `O=C(c1cc(Cl)cc(Cl)c1)N(C(=O)N1CCN(c2ccccc2)CC1)c1ccccc1` for Malme-3M.
Reply | 47 µM (inactive)

Ask | Give the observed GI50 of O=C(O)C12C3C4(C(=O)O)C1C1(C(=O)O)C2C3(C(=O)O)C41 (centres undefined) for Malme-3M.
Reply | > 100 µM (inactive)

Ask | Give the observed GI50 of `CN(C)CCCNc1ccc2ncn3c4ccc(O)cc4c(=O)c1c23` for Malme-3M.
Reply | 2.83 µM (inactive)

Ask | Give the observed GI50 of `NC(=O)c1sc2nc3ccccc3n2c1N` for Malme-3M.
Reply | > 100 µM (inactive)

Ask | Give the observed GI50 of CC1OC2=N[C@@H]1C(=O)N[C@@H](C(C)C)C1=N[C@H](C(=O)N[C@@H](C(C)C)C3=N[C@H](C(=O)N[C@@H](C(C)C)C4=N[C@H](C(=O)N[C@H]2C(C)C)C(C)O4)C(C)O3)C(C)O1 (some centres undefined) for Malme-3M.
Reply | > 10 µM (inactive)

Ask | Give the observed GI50 of Nc1ncnc2c1ncn2C1OC(COC2C(CO)OC(OC(C(=O)O)C(O)C(OP(=O)(O)O)C(O)C(=O)O)C(O)C2O)C(O)C1O (centres undefined) for Malme-3M.
Reply | 45.7 µM (inactive)

Ask | Give the observed GI50 of `NNC(=O)c1ccc[n+](CCc2ccccc2)c1` for Malme-3M.
Reply | > 100 µM (inactive)

Ask | Give the observed GI50 of CC(C)(C)C1CCC2c3c([nH]c4ccccc34)C3C(=O)N(c4cc(Br)cc(Br)c4)C(=O)C3C2C1 (centres undefined) for Malme-3M.
Reply | 57.9 µM (inactive)

---

- System: Hs-578T
- assay.protocol: NCI tumour cell line growth inhibition, 48 h
The source made the active and inactive calls. Rule as the data show it: active = GI50 up to about 1.1 µM and inactive = higher.
Can you answer with just one of these options? Y for active, N for inactive

molecule	group.label
CCO[C@@H]1CCC([S+]([O-])c2ccc(C)cc2)=CO1 (stereo partly drawn)	N
O=C(O)CC[P+](c1ccccc1)(c1ccccc1)c1ccccc1	N
CCOC(=O)C1(C/C=C\CBr)CCCCCCC1=O (stereo not drawn)	N
C#CCOC(=O)C(N)CSSCC(N)C(=O)O (stereo not drawn)	N
c1cncc(-c2ncc3cccnc3n2)c1	N

Ask | Status in this test for Cc1ccc(N2C(N)=C(C#N)C(C#N)(C#N)C2c2ccccc2)cc1 (stereo not drawn) ?
Reply | N

Ask | Status in this test for `N#Cc1c(-c2ccc(Cl)cc2)c2c([nH]c1=O)-c1ccccc1SC2` ?
Reply | N

Ask | Status in this test for `Cc1ccc(SC[C@@]2(C(F)F)NC(=O)NC2=O)cc1` ?
Reply | N

Ask | Status in this test for `CCOC(=O)Cc1nn2c(=O)cc(C)nc2s1` ?
Reply | N

Ask | Status in this test for `CCOc1cc(/C=N\N(C)C)cc(/C=N\N(C)C)c1O` ?
Reply | N

Ask | Status in this test for `O=C(CCc1ccccc1)NCCc1ccc(O)c(O)c1` ?
Reply | N

Ask | Status in this test for `Cc1cn([C@H]2CN(O)C[C@@H](CO)O2)c(=O)[nH]c1=O` ?
Reply | N

Ask | Status in this test for `COC(=O)c1csc(-c2csc(CCNC(=O)OC(C)(C)C)n2)n1` ?
Reply | N

Ask | Status in this test for `CCOC(=O)c1ccc(/N=c2/[nH]c3ccccc3s/c2=N/c2ccc(C(=O)OCC)cc2)cc1` ?
Reply | N

Ask | Status in this test for `CN(C)/C=N/c1ccc2nonc2c1` ?
Reply | N

Ask | Status in this test for `COC(=O)c1c(O)ccc2c1c1c(n2C)C(=O)c2ccccc2C1=O` ?
Reply | N

---

- Tested on: UO-31
- assay.protocol: NCI tumour cell line growth inhibition, 48 h
Active and inactive are the calls of the source. Cut-off read from the data, not from the text of the source: active = GI50 up to about 1.1 µM and inactive = higher.
Can you answer with just one of these options? active, inactive

Study these solved cases before continuing.
molecule	group.label
Cc1ccc(C(=O)NC2C(=O)NC(C(C)C)C(=O)N3CCCC3C(=O)N(C)CC(=O)N(C)C(C(C)C)C(=O)OC2C)c2c1Oc1c(c(C(=O)NC3C(=O)NC(C(C)C)C(=O)N4CCCC4C(=O)N(C)CC(=O)N(C)C(C(C)C)C(=O)OC3C)c3nc(-c4ccccc4)c(=O)oc3c1C)N2 (configuration not stated)	active
CCOC(=O)c1ccc(/N=c2/[nH]c3ccccc3s/c2=N/c2ccc(C(=O)OCC)cc2)cc1	inactive
Nc1c(-c2nc3ccccc3[nH]2)sc(=S)n1-c1ccc(Cl)cc1	inactive

Ask | Status in this test for `O=C(NN=C1CCCCC1)NN=C1CCCCC1` ?
Reply | inactive

Ask | Status in this test for C=CC1(C)OC2(CCN(C(=O)OCC)CC2)OC1C (configuration not stated) ?
Reply | inactive

Where these numbers come from: ChEMBL document CHEMBL1201862
